target: T1, human CCL2 (MCP1) - P8A variant (human, UniProt P13500 24-99); assay: SPR T200, 37 C, antibody captured, 1:1 model
T1 construct: In-house point mutant that cannot dimerise; also called monomeric human CCL2; monomeric CCL2
Response field label takes T when Kd is strictly below 0.05 nM and F in all other cases.

BINDER: 1A4 (antibody, V domains shown, which format stood in each assay is not always stated; also called CCL2-0008) VH: QSLEESGGDLVKPGASLTLTCTASELDFYWICWVRQAPGKGLEWIACIGAGSSGSTYYASWAKGRFTVSKTSSTTVTLQMTSLTAADTATYFCARTGTEFTYYSLWGPGTLVTVSS VL: ALVMTQTPSSVSAAVGGTVTINCQASQSVYNNNMAWYQQKPGQPPKLLIYTASSLASGVPSHFRGSGSGTQFTLTISDLESDDAATYYCAGYKSYSNDEYGFGGGTEVVVK
CATEGORY_LABEL: F
//
BINDER: murine 11K2 (antibody, V domains shown, also called 11K2m; X-0048) VH: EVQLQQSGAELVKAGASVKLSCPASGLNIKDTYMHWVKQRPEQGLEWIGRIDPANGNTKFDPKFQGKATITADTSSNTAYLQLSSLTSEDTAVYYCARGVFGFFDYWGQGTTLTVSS VL: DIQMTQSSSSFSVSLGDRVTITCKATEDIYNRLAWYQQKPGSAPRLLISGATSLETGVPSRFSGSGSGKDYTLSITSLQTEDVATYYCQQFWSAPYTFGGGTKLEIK
CATEGORY_LABEL: T
//
BINDER: Humanized 11K2 (=11K2) (antibody, IgG1, V domains shown, IgG1 with kappa light chain; also called CCL2-0002; humanized 11k2 IgG1) VH: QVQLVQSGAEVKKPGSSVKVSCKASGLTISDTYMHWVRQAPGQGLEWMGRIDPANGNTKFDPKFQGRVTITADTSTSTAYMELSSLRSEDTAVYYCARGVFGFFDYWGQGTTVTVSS VL: DIQMTQSPSSLSASVGDRVTITCKATEDIYNRLAWYQQKPGKAPKLLISGATSLETGVPSRFSGSGSGTDYTLTISSLQPEDFATYYCQQFWSAPYTFGGGTKVEIK
CATEGORY_LABEL: T
//
BINDER: ABN912 (antibody, IgG1, V domains shown, IgG1 with kappa light chain; also called AB912; CCL2-0003) VH: EVQLVQSGGGLVQPGGSLRLSCAASGFTFSHYWMSWVRQAPGKGLEWLANIEQDGSEKYYVDSVKGRFTISRDNAKNSLYLQMNSLRAEDTAVYFCARDLEGLHGDGYFDLWGRGTLVTVSS VL: AIQLTQSPSSLSASVGDRVILTCRASQGVSSALAWYQQKPGKAPKLLIYDASSLESGVPSRFSGSGSGPDFTLTISSLQPEDFATYFCQQFNSYPLTFGGGTKVEIK
CATEGORY_LABEL: T
//
BINDER: 1A5 (antibody, IgG1, V domains shown, also called CCL2-0009) VH: QEQLVESGGDLVKPEGSLTLTCTASGFSFSTSYWMCWVRQAPGKGLELIACISSSIGVTYYASWAEGRFTISKTSSTTVTLQMTSLTVADTATYFCARTTDDNWNVGFNLWGPGTLVTVSS VL: AYDMTQTPASVEVGVGGTVTIKCQASQSIGNRYLSWYQQKPGQPPKLLIYGTSTLASGVSSRFKGSGSGTQFTLTISGVESADSATYYCQQGATISYLDNAFGGGTEVVVK
CATEGORY_LABEL: T
//
BINDER: 2F6 (antibody, IgG1, V domains shown, also called CCL2-0014) VH: QSLEESGGGLVQPEGSLTLTCTASGFSFNNNYYMCWVRQAPGKGLEWIGCISTDDSNTHYASWAQGRFTISKASSTALTLQVAGLTVADMATYFCARDAHFTSYGYGFDLWGPGTLVTVSS VL: DIVMTQTPASVSAAVGGTVSINCRASEDIENLVAWYQQKPGQPPKLLIYQASKLASGVPSRFKGSGSGAEFTLTIGDLESADAATYYCQGDYGSGWIMYSFGGGTDLVVK
CATEGORY_LABEL: F
